# Tested on: R. mucilaginosa enzyme preparation (Rmep)
# Protocol description: Inhibitor profile of Rmep (Suc-AAPF-pNA hydrolysis)
# Format: biochemical, Rothia mucilaginosa
# Protocol conditions: AEBSF 10 mM, aprotinin 0.08 mM, E-64 0.1 mM, EDTA 1.5 mM, PMSF 1 mM; Rmep 5.7 μg/ml; Suc-AAPF-pNA

Compound: O=S(=O)(F)Cc1ccccc1 [PMSF, phenylmethanesulfonyl fluoride]
inhibition of Rmep activity: inhibited effectively
//
Compound: O=C(O)CN(CCN(CC(=O)O)CC(=O)O)CC(=O)O [EDTA, ethylenediaminetetraacetic acid]
inhibition of Rmep activity: not
//
Compound: CC(C)C[C@H](NC(=O)[C@H]1O[C@@H]1C(=O)O)C(=O)NCCCCN=C(N)N [E64]
inhibition of Rmep activity: not
//
Compound: NCCc1ccc(S(=O)(=O)F)cc1 [AEBSF]
inhibition of Rmep activity: inhibited effectively
